molecular target: human S1P5 receptor (S1PR5) (Homo sapiens, UniProt Q9H228); construct: host or cells: CHO-K1; assay: Intracellular Ca2+ release (method 1), agonist potency and efficacy, S1P5; format: cell-based; details: recombinant CHO-K1 cells expressing human S1PR5, aequorin, Gq/i5; Ca2+ release; read-out: S1P5 EC50 range
Sequence (Q9H228 whole entry): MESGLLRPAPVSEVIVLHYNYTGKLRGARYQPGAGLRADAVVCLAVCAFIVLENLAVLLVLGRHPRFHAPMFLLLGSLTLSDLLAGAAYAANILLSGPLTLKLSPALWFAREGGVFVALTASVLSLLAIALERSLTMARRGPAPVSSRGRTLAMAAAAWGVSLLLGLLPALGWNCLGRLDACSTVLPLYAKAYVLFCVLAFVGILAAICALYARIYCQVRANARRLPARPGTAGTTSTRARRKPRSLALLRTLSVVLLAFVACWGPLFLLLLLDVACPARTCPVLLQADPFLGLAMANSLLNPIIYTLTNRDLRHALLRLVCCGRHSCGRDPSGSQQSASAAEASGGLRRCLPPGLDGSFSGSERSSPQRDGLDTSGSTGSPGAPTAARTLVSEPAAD
measure: EC50

[[record]]
compound = "O=C(O)CCCN1Cc2ccc(C#Cc3ccc(OC(F)(F)F)cc3)cc2C2(CC2)C1"
recorded_value = "10 to 100 nM"

[[record]]
compound = "CC(CC(=O)O)CN1Cc2ccc(C#Cc3cccc(F)c3F)cc2C2(CC2)C1 (centres unmarked)"
recorded_value = "100 to 1000 nM"

[[record]]
compound = "Cc1cccnc1C#Cc1ccc2c(c1)C1(CC1)CN(CCC(=O)O)C2"
recorded_value = "1000 to 10000 nM"

[[record]]
compound = "CC(C)c1ccc(C#Cc2ccc3c(c2)C2(CC2)CN(CCC(=O)O)C3)cc1"
recorded_value = "< 10 nM"

[[record]]
compound = "CCOc1ccc(C#Cc2ccc3c(c2)C2(CC2)CN(CCC(=O)O)C3)cc1"
recorded_value = "< 10 nM"


Q: # return recorded EC50 for input `O=C(O)CCCN1Cc2ccc(OCc3ccccc3OC(F)(F)F)cc2C2(CC2)C1`
Result: < 10 nM

Q: # return recorded EC50 for input CC(C)Oc1ccc(C#Cc2ccc3c(c2)C2(CC2)CN(C2CC(C(=O)O)C2)C3)nc1 (centres unmarked)
Result: 10 to 100 nM

Q: # return recorded EC50 for input `O=C(O)CCCN1Cc2ccc(OCc3cccc(Cl)c3)cc2C2(CC2)C1`
Result: < 10 nM

Q: # return recorded EC50 for input `CCOc1ccc(C#Cc2ccc3c(c2)C2(CC2)CN(CCCC(=O)O)C3)nc1`
Result: 1000 to 10000 nM

Q: # return recorded EC50 for input `O=C(O)CCN1Cc2ccc(C#Cc3ccsc3)cc2C2(CC2)C1`
Result: 10 to 100 nM

---

biological target: human S1P5 receptor (S1PR5) (Homo sapiens); construct: host or cells: CHO-K1; experiment: Intracellular Ca2+ release (method 1), agonist potency and efficacy, S1P5; assay type: cell-based; conditions: maximum effect in % of reference agonist phospho-fingolimod (100%); read-out: hS1P5 EMax
# Emax values compiled below

[[record]]
compound = "CCOc1ccc(C#Cc2ccc3c(c2)C2(CC2)CN(CCCC(=O)O)C3)cc1 [Compound 3, 2,2,2-trifluoroacetate]"
measure = "Emax"
recorded_value = "50 to 100%"


Q: # return recorded Emax for input `CCc1cccc(Cl)c1COc1ccc2c(c1)C1(CC1)CN(CCCC(=O)O)C2`
Result: > 100%

Q: # return recorded Emax for input `O=C(O)CCCN1Cc2ccc(OCc3c(Cl)cccc3Cl)cc2C2(CC2)C1`
Result: > 100%

---

biological target: human S1P5 receptor (S1PR5) (Homo sapiens); construct: host or cells: CHO-K1; assay: Intracellular Ca2+ release (method 1), agonist potency and efficacy, S1P5; assay type: cell-based; details: recombinant CHO-K1 cells expressing human S1PR5, aequorin, Gq/i5; Ca2+ release; read-out: S1P5 EC50 range
measure: EC50

Q: # return recorded EC50 for input `CCOc1ccc(C#Cc2ccc3c(c2)C2(CC2)CN(CCCC(=O)O)C3)cc1F`
Result: < 10 nM

Q: # return recorded EC50 for input `O=C(O)CCN1Cc2ccc(C#Cc3ccc(F)cc3)cc2C2(CC2)C1`
Result: 1000 to 10000 nM

Q: # return recorded EC50 for input CC(CC(=O)O)CN1Cc2ccc(C#Cc3ccsc3)cc2C2(CC2)C1 (stereo not shown)
Result: 10 to 100 nM

Q: # return recorded EC50 for input CC(C)c1ccc(C#Cc2ccc3c(c2)C2(CC2)CN(CCCC(=O)O)C3)cc1 [Compound 1, 2,2,2-trifluoroacetate]
Result: < 10 nM

Q: # return recorded EC50 for input `CCc1cccc(Cl)c1COc1ccc2c(c1)C1(CC1)CN(CCCC(=O)O)C2`
Result: < 10 nM

Q: # return recorded EC50 for input `O=C(O)CCCN1Cc2ccc(C#Cc3ccc4c(c3)OCO4)cc2C2(CC2)C1`
Result: 1000 to 10000 nM

Q: # return recorded EC50 for input `CC(C)Oc1ccc(C#Cc2ccc3c(c2)C2(CC2)CN(CCCC(=O)O)C3)nc1`
Result: 100 to 1000 nM

---

target: human S1P5 receptor (S1PR5) (Homo sapiens); construct: host or cells: CHO-K1; experiment: Intracellular Ca2+ release (method 1), agonist potency and efficacy, S1P5; type: cell-based; conditions: maximum effect in % of reference agonist phospho-fingolimod (100%); read-out: hS1P5 EMax
measure: Emax

Solved entries (count: 6):
[[record]]
molecule = "CCOc1ncc(C#Cc2ccc3c(c2)C2(CC2)CN(CCCC(=O)O)C3)cc1F [Compound 51]"
measure = "Emax"
recorded_value = "50 to 100%"

[[record]]
molecule = "CCOc1ccc(C#Cc2ccc3c(c2)C2(CC2)CN(CCCC(=O)O)C3)c(C)n1 [Compound 53]"
measure = "Emax"
recorded_value = "50 to 100%"

[[record]]
molecule = "COc1ccc(C#Cc2ccc3c(c2)C2(CC2)CN(CCCC(=O)O)C3)c(C)n1 [Compound 57]"
measure = "Emax"
recorded_value = "50 to 100%"

[[record]]
molecule = "O=C(O)CCCN1Cc2ccc(OCc3cccc(OC(F)(F)F)c3)cc2C2(CC2)C1 [Compound 20]"
measure = "Emax"
recorded_value = "< 50%"

[[record]]
molecule = "CC(CC(=O)O)CN1Cc2ccc(C#Cc3c(F)cccc3F)cc2C2(CC2)C1 (centres unmarked) [Compound 58]"
measure = "Emax"
recorded_value = "50 to 100%"

[[record]]
molecule = "CC(C)Oc1ccc(C#Cc2ccc3c(c2)C2(CC2)CN(CCCC(=O)O)C3)cc1 [Compound 46]"
measure = "Emax"
recorded_value = "> 100%"


Q: Name the recorded Emax of CC(CC(=O)O)CN1Cc2ccc(C#Cc3ccc(OC(C)C)cc3)cc2C2(CC2)C1 (centres unmarked) [Compound 62] , assay system human S1P5 receptor (S1PR5) (Homo sapiens).
Result: > 100%

Q: Name the recorded Emax of O=C(O)CCCN1Cc2ccc(C#Cc3ccc(OC(F)(F)F)c(F)c3)cc2C2(CC2)C1 [Compound 47] , assay system human S1P5 receptor (S1PR5) (Homo sapiens).
Result: > 100%

Q: Name the recorded Emax of O=C(O)CCN1Cc2ccc(C#Cc3ccccc3Cl)cc2C2(CC2)C1 [Compound 35] , assay system human S1P5 receptor (S1PR5) (Homo sapiens).
Result: 50 to 100%

Q: Name the recorded Emax of CC(C)c1ccc(C#Cc2ccc3c(c2)C2(CC2)CN(CC(=O)O)C3)cc1 [Compound 6, 2,2,2-trifluoroacetate] , assay system human S1P5 receptor (S1PR5) (Homo sapiens).
Result: > 100%

Q: Name the recorded Emax of Cc1cccnc1C#Cc1ccc2c(c1)C1(CC1)CN(CCC(=O)O)C2 [Compound 43] , assay system human S1P5 receptor (S1PR5) (Homo sapiens).
Result: 50 to 100%

Q: Name the recorded Emax of O=C(O)CCN1Cc2ccc(C#Cc3c(F)cccc3F)cc2C2(CC2)C1 [Compound 36] , assay system human S1P5 receptor (S1PR5) (Homo sapiens).
Result: 50 to 100%

Q: Name the recorded Emax of CCOc1ccc(C#Cc2ccc3c(c2)C2(CC2)CN(CC(C)CC(=O)O)C3)cc1F (centres unmarked) [Compound 69] , assay system human S1P5 receptor (S1PR5) (Homo sapiens).
Result: > 100%

Q: Name the recorded Emax of O=C(O)CCN1Cc2ccc(C#Cc3ccsc3)cc2C2(CC2)C1 [Compound 38] , assay system human S1P5 receptor (S1PR5) (Homo sapiens).
Result: 50 to 100%
